# Tested on: E57 (patient-derived glioblastoma stem cells of mesenchymal subtype);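 also: nuclei counted by high-content imaging of Hoechst-stained cells in laminin-coated 384-well plates, relative to 0.1% DMSO vehicle wells, with staurosporine as cell-death control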
# test.name: surviving fraction (nuclei count normalised to DMSO); higher = more cells surviving (less toxic)
# measurement.context: 3000 nM; exposure time: 72 h
Counter-ions that a name gives are not always drawn.
observed.property: surviving fraction

>  <molecule>
Cc1ccc(S(=O)(=O)/C=C/C#N)cc1 [Bay 11-7082]

>  <observed.result>
0.107

$$$$
>  <molecule>
Cc1[nH]nc(C(F)(F)F)c1Cc1sc2c(c1C(=O)N1C[C@](C)(O)CO1)c(=O)n(C)c(=O)n2C(C)C [AZD3965]

>  <observed.result>
0.917

$$$$
>  <molecule>
CCC(=O)OCC(=O)[C@@]1(OC(=O)CC)[C@H](C)C[C@H]2[C@H]3[C@H]([C@@H](O)C[C@@]21C)[C@@]1(C)C=CC(=O)C=C1C[C@H]3Cl [Alclometasone dipropionate]

>  <observed.result>
1.13

$$$$
>  <molecule>
O=[N+]([O-])c1ccc2c(c1)S(=O)(=O)C=C2 [Stattic]

>  <observed.result>
0.0847

$$$$
>  <molecule>
CN(C)CCN(Cc1ccc(Cl)cc1)c1ccccn1 [Chloropyramine hydrochloride]

>  <observed.result>
1.03

$$$$
